target: T1, human LILRB2 expressed on cells (293T-LILRB2, CHO-K1-LILRB2) (human, UniProt Q8N423 22-597); experiment: flow cytometry, 293T-LILRB2 cells
T1 construct: whole, on cells; the cell line is named under assay; also called HEK293T-LILRB2
T1 sequence (Q8N423 22-597): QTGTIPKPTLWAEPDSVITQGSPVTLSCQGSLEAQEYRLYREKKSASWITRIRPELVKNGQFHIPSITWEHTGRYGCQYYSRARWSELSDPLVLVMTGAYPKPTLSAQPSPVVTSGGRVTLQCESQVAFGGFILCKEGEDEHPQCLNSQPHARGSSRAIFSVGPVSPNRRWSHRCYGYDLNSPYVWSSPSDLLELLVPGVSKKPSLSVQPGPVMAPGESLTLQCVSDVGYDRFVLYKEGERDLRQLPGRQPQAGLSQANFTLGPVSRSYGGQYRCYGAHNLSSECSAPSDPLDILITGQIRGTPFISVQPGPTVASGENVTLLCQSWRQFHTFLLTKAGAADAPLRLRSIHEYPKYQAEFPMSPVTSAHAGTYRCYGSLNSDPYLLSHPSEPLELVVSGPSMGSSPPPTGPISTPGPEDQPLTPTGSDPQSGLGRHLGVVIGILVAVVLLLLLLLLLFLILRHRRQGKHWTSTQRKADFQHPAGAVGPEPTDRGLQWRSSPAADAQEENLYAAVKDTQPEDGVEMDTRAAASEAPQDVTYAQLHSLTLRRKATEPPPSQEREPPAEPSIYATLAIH
observable: Bmax
Would you mind answering with just the numeric figure?

>>> endpoint_result("Antibody 2E1_GG1 (antibody, V domains shown) VH: EVQLVESGGGLVQPGGSLRLSCAVSGYSITSGYAWNWIRQAPGKGLEWVAYISYDGNNNYNPSLKNRFTISRDTSKNTFYLQMNSLRAEDTAVYYCAREESTMITTAWFAYWGQGTLVTVSS VL: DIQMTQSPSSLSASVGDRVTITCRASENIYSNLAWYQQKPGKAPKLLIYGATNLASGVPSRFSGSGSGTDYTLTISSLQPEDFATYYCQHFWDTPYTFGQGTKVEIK")
688000

Challenge: Can you look up the measured Bmax of Antibody 2E1_GF1 (antibody, V domains shown) VH: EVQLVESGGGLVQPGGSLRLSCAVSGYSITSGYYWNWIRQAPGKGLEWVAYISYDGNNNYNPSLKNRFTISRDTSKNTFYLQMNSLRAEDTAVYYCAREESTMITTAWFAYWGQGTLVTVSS VL: DIQMTQSPSSLSASVGDRVTITCRASEVIYSNLAWYQQKPGKAPKLLIYGATNLASGVPSRFSGSGSGTDYTLTISSLQPEDFATYYCQHFWDTPYTFGQGTKVEIK for me?
Response given: 706000

Challenge: Return reported Bmax; argument: Antibody 2E1_GC8 (antibody, V domains shown) VH: EVQLVESGGGLVQPGGSLRLSCAVSGYSITSGYYWWWIRQAPGKGLEWVAYISYDGNNNYNPSLKNRFTISRDTSKNTFYLQMNSLRAEDTAVYYCAREESTMITTAWFAYWGQGTLVTVSS VL: DIQMTQSPSSLSASVGDRVTITCRASENIYSNQAWYQQKPGKAPKLLIYGATNRASGVPSRFSGSGSGTDYTLTISSLQPEDFATYYCQHFWDTPYTFGQGTKVEIK
Response given: 697000
